B1: SCNN1D (parent)
chain: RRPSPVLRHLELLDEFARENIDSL

# Variants of: B1
# test description: protein stability index of a GFP-peptide fusion (GPS, HEK-293T) (PSI 1-6); higher = more stable;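 note: lentivirally expressed fusions sorted by FACS into six bins by GFP to DsRed ratio, PSI derived from sequencing read proportions per bin multiplied by bin number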
# conditions: c terminus: a fixed tail appended
I would appreciate it if you labelled entries Criterion met when protein stability index is 3 or higher, otherwise Criterion not met.

L24W ... Criterion not met
A17E ... Criterion met
L12P ... Criterion met
R18S ... Criterion met
E19R ... Criterion not met
R1C ... Criterion not met
D22L ... Criterion not met
L13R ... Criterion met

As a next step, examine the variant that follows.
## Input Record `S4V` ; criterion: protein stability index no lower than 3. Met?
## Output Criterion not met
